So I've got a bunch of compounds here, and I need their TGI values.
# Test system: IGROV1 ovarian
# procedure text: NCI tumour cell line growth inhibition, 48 h

// each compound listed below needs its TGI
1. CCOC(=O)/C=C/c1c[nH]c(=O)[nH]c1=O
2. CC(C)C1NC(=O)[C@H](C)OC(=O)[C@@H](C(C)C)NC(=O)[C@@H](C)OC(=O)C(C(C)C)NC(=O)[C@H](C)OC1=O (stereo partly specified)
3. CC(C)=CCc1c(O)c(C(=O)CC(C)C)c(O)c2c(-c3ccccc3)cc(=O)oc12

1: > 75 µM; 2: > 100 µM; 3: > 50 µM

// each compound listed below needs its TGI
1. O=C1CN(c2ccccc2)C(=O)CN1CCN1CC(=O)N(c2ccccc2)CC1=O
2. CNC(=S)N(C1CCCCC1)C1CCCCC1
3. COC1C(OC(C)=O)CC(=O)OC(C)C/C=C/C=C\C(O)C(C)CC(CC=O)C1OC1OC(C)C(OC2CC(C)(O)C(OC(=O)CC(C)C)C(C)O2)C(N(C)C)C1O (stereo unspecified)
4. CN=C(N)NC
5. COc1ccc2[nH]c3c(C)c4ncccc4c(C)c3c2c1
6. Cc1ccc(-c2cc(=O)c3cc(C)c(C)c(C(=O)O)c3o2)cc1[N+](=O)[O-]
7. C/C=C(\C)C(=O)N1c2ccccc2CC1c1c(C)[nH]c2ccccc12 (stereo unspecified)
8. NC(Cc1ccc(O)cn1)C(=O)O (stereo unspecified)

1: > 100 µM; 2: > 100 µM; 3: > 100 µM; 4: > 100 µM; 5: > 10 µM; 6: > 100 µM; 7: > 100 µM; 8: > 100 µM

The reported numbers originate from PubChem BioAssay (NCI).
